Test: Plasma pharmacokinetics, noncompartmental analysis
Format: in vivo
Conditions: human, po, 2 mg
propertyLabel: Cmax (ng/mL)
Provide the reading as a plain figure in ng/mL.

Which Cmax is reported for this compound? OC(CCN1CCCCC1)(c1ccccc1)C1CC2C=CC1C2 (stereo not shown) [biperiden]
3.51

----------
Test: Plasma pharmacokinetics, noncompartmental analysis
Type: in vivo
Settings: human, po, 4 mg
propertyLabel: Tmax (h)
Express the result in h but write the number alone.

What value of Tmax has been reported for the following molecule? OC(CCN1CCCCC1)(c1ccccc1)C1CC2C=CC1C2 (stereo not shown)
2

----------
Assay: Plasma pharmacokinetics, noncompartmental analysis
Assay type: in vivo
Conditions: human, po, 4 mg
propertyLabel: AUC(0-t) (ng·h/mL)
Just the number please, in ng·h/mL, no unit attached.

Query: AUC(0-t); subject: OC(CCN1CCCCC1)(c1ccccc1)C1CC2C=CC1C2 (stereo not shown)
39.5
